Where do the numbers come from? From patent US20110143948A1.

// reported ncRNA array expression, patient 26 per item
- Tested on: ncRNAs (SEQ ID NO 28-89)
- method: ncRNA arrays of melanocytes, keratinocytes, normal skin, melanoma cell lines and patient samples
- Parameters: species or system human
- study conditions: melanoma patient 26 sample compared to normal skin
Respond numerically, and do not add a unit to the figure.

Sample records with ncRNA array expression, patient 26:
{"columns": ["substance", "ncRNA array expression, patient 26"],
 "data": [
  ["SEQ ID NO 44 (AGCCAACTCACGCTTAGGGAGAACTCATACCGCCTAAATATAAAGGCAATTATATATATA; listed as DNA, chemistry not given here; listed as Homo sapiens)", "−1.501"],
  ["SEQ ID NO 72 (AATTACATATATTTAGCAGGATTTTTATTTGCCGTGATATATAGGATAATTTAGTCTTTG; listed as DNA, chemistry not given here; listed as Homo sapiens)", 3.29],
  ["SEQ ID NO 85 (TGAGGGGAGAGGGGATGGGAAACATTAGGGCTGGGTTCATGTAAAGGGACCAGCATTGTG; listed as DNA, chemistry not given here; listed as Homo sapiens)", "−3.139"],
  ["SEQ ID NO 41 (CTCGTAACACTGGGAAAACTGCATACAATATTTAGAAGGAACACTAATACAGCAGAATCT; listed as DNA, chemistry not given here; listed as Homo sapiens)", "−2.458"],
  ["SEQ ID NO 89 (GGACACAGAGAGTCATGCACCAGCCCAGTGAGAACCAATTCAGAGCCAAATGCCAAACCC; listed as DNA, chemistry not given here; listed as Homo sapiens)", "−1.6"]
]}

query: Output measured ncRNA array expression, patient 26 for this item: SEQ ID NO 31 (TTGCTTTTGTATTTGTAATTTTATGACATTTCGAAGTTTCTGTGTCTTAACTCTTTTTAA; listed as DNA, chemistry not given here; listed as Homo sapiens)
result: 3.487

query: In one line, give reported ncRNA array expression, patient 26 of the entry SEQ ID NO 73 (AAAGTTTCCCCATAATGCTCTTGCAAGTGAATATGAGCTGTGGTTTTTGCAGTGGAGTTA; listed as DNA, chemistry not given here; listed as Homo sapiens) .
result: 1.308

query: Provide only the value of recorded ncRNA array expression, patient 26 for SEQ ID NO 36 (TATTTGTGACTAACTGTATAACAGGTTATTTTAGTTTCTGTTCTGTGGGAAGTGTAAAGC; listed as DNA, chemistry not given here; listed as Homo sapiens)
result: 4.401

query: Consider the substance SEQ ID NO 77 (AAGTTTCCACGGCAGGTTCTCGTAGCACCTTTGGTCAAGAACTGAAGGGGCCTTTAGATG; listed as DNA, chemistry not given here; listed as Homo sapiens) and give its recorded ncRNA array expression, patient 26.
result: −2.157

query: Kindly indicate its recorded ncRNA array expression, patient 26. Item: SEQ ID NO 46 (CTATTGGAGTGCATATAAATTCTTGATAGCACCAGTTCTCAAATATGAGGTGTTAAAAAC; listed as DNA, chemistry not given here; listed as Homo sapiens)
result: 2.919

query: Please indicate ncRNA array expression, patient 26 recorded for SEQ ID NO 45 (ATTTAGAGAACATTTAAATCTGTAAGGAAGAAAATAATAACGACTCACAATTACATCATT; listed as DNA, chemistry not given here; listed as Homo sapiens)
result: −2.174

query: Name the recorded ncRNA array expression, patient 26 of the substance listed here: SEQ ID NO 63 (CTCACACGCACCCTTTCACTGTTTCTTAGTAATTTGTTTGTCTACAGACACAGACGGGAA; listed as DNA, chemistry not given here; listed as Homo sapiens)
result: −2.008

query: Supply measured ncRNA array expression, patient 26 of SEQ ID NO 40 (GTTAAAGACTAAATTAGTGATTTGGGAGATCAAGCCAATGGGCTTGTCTAAAACCTAGTC; listed as DNA, chemistry not given here; listed as Homo sapiens) in your reply.
result: 2.021

query: Tell me measured ncRNA array expression, patient 26 for SEQ ID NO 51 (ATGTATTTTAGGTAATAAGATTTTTATCAATTGTGTCTTTTTCTTTCTTTGCTTTCTATA; listed as DNA, chemistry not given here; listed as Homo sapiens) please.
result: 1.145

query: Name the recorded ncRNA array expression, patient 26 of the item SEQ ID NO 86 (AAAATTATTTTATCTTAAGTTTCCATTTAGTTGATTAAAAATAGGGTTATGAATGTTAAA; listed as DNA, chemistry not given here; listed as Homo sapiens) in your answer.
result: 3.088

query: Provide measured ncRNA array expression, patient 26 value, entry: SEQ ID NO 50 (GTTATTATAACCAATGCAGACTTTAAAATCCCACCTGGACATCGGGTGAGAGGAGGAGGG; listed as DNA, chemistry not given here; listed as Homo sapiens)
result: −1.952
